Overview of reported inhibition at 1 µM across a group of compounds:
target: human Nav1.6 (hNav1.6) (Homo sapiens)
Construct: expressed in transfected cells; host or cells: HEK-293 (G418 selection)
assay-summary: Modulation of late sodium current (INaL), PatchXpress electrophysiology, ATX-II evoked
Format: cell-based
measurement-conditions: HEK293; 1 μM compound; HEK-293 cells expressing recombinant human Nav1.6; late current evoked by 300 nM ATX-II; read-out: INaL v1.6 (1 μM, % Inhibition)
readout-name: inhibition at 1 µM

{"compound": "COCc1nnn2ccc(-c3cnc(OCC(F)(F)F)c(F)c3)cc12 [Compound 20]", "endpoint-result": "30 to 70%"}
{"compound": "COCc1nnn2ccc(-c3ccc(OC(F)(F)F)cc3C)cc12 [Compound 13]", "endpoint-result": "> 70%"}
{"compound": "Cc1cc(OC(F)(F)F)ccc1-c1ccn2nncc2c1 [Compound 1]", "endpoint-result": "30 to 70%"}
{"compound": "C[C@H](Oc1ncc(-c2ccn3nnc(C(F)F)c3c2)cc1F)C(F)(F)F [Compound 38]", "endpoint-result": "> 70%"}
{"compound": "C[C@H](Oc1ncc(-c2ccn3nncc3c2)cc1F)C(F)(F)F [Compound 18]", "endpoint-result": "> 70%"}
{"compound": "Cc1cc(OC(F)(F)F)ccc1-c1ccn2nnc(C(F)(F)F)c2c1 [Compound 4]", "endpoint-result": "> 70%"}
{"compound": "C[C@@H](Oc1ncc(-c2ccn3nnc(C(F)(F)F)c3c2)cc1F)C(F)(F)F [Compound 30]", "endpoint-result": "> 70%"}
{"compound": "[2H]c1nnn2ccc(-c3cnc(OCC(F)(F)F)c(F)c3)cc12 [Compound 34]", "endpoint-result": "> 70%"}
{"compound": "Cc1cc(OC(F)(F)F)ccc1-c1ccn2nnc(C)c2c1 [Compound 3]", "endpoint-result": "> 70%"}
{"compound": "COCc1nnn2ccc(-c3cnc(O[C@@H](C)C(F)(F)F)c(F)c3)cc12 [Compound 27]", "endpoint-result": "> 70%"}
{"compound": "Cc1nnn2ccc(-c3cnc(O[C@@H](C)C(F)(F)F)c(F)c3)cc12 [Compound 22]", "endpoint-result": "> 70%"}

====

target: human Nav1.6 (hNav1.6) (Homo sapiens, UniProt Q9UQD0)
Construct: expressed in transfected cells; host or cells: HEK-293 (G418 selection)
Sequence (Q9UQD0 whole entry): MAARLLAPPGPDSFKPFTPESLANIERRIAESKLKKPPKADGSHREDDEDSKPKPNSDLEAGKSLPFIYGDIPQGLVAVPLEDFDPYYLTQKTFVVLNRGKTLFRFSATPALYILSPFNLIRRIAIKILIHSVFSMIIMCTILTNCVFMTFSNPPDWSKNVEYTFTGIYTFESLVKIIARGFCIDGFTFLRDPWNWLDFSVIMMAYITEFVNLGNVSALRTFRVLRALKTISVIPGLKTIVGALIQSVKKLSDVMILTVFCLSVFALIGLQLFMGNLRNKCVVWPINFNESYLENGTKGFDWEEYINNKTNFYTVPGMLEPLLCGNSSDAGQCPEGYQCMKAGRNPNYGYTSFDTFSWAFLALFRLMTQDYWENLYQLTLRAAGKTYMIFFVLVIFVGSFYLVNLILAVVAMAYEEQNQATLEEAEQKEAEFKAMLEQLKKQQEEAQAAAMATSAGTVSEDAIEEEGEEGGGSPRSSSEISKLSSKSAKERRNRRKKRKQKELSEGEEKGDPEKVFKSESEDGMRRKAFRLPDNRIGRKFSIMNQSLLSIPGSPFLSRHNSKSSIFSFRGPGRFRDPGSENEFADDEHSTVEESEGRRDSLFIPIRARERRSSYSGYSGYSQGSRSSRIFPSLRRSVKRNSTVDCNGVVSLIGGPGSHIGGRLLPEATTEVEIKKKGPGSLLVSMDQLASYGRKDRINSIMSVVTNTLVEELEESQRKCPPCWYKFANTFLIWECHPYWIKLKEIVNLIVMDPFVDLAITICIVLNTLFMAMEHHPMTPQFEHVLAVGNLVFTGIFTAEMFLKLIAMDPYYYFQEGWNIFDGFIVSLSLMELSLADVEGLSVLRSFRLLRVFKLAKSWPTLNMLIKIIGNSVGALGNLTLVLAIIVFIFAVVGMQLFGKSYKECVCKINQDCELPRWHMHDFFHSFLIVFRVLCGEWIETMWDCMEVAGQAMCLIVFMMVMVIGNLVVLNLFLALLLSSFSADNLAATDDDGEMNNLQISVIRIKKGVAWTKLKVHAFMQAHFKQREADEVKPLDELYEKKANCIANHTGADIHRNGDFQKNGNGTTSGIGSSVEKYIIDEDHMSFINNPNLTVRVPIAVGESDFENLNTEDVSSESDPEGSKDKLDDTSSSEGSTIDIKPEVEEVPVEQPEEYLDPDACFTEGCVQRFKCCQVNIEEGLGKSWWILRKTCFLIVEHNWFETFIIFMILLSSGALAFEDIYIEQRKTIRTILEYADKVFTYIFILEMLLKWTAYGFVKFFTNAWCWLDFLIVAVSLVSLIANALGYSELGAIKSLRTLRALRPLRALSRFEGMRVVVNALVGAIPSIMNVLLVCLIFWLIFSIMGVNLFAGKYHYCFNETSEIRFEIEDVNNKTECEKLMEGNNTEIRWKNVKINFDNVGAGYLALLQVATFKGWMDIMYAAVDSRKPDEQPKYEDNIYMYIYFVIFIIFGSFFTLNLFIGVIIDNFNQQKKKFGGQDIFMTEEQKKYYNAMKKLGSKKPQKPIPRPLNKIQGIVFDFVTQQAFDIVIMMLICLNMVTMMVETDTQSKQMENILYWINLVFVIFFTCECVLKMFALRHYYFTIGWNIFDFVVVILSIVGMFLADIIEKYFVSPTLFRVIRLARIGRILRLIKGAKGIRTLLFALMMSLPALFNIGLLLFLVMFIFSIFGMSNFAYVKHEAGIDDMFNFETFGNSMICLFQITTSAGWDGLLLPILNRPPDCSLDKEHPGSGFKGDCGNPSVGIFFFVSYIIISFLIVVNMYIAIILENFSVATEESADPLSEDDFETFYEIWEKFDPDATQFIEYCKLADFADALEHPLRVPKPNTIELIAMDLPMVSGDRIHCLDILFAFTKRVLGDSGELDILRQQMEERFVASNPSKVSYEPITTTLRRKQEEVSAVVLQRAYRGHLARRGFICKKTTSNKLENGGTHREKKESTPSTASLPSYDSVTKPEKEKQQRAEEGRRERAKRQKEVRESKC
assay-summary: Modulation of late sodium current (INaL), PatchXpress electrophysiology, ATX-II evoked
Assay type: cell-based
measurement-conditions: HEK293; 1 μM compound; HEK-293 cells expressing recombinant human Nav1.6; late current evoked by 300 nM ATX-II; read-out: INaL v1.6 (1 μM, % Inhibition)
readout-name: inhibition at 1 µM

{"compound": "FC(F)Oc1ccc(-c2ccn3nncc3c2)cc1 [Compound 14]", "endpoint-result": "30 to 70%"}
{"compound": "Cc1nnn2ccc(-c3cnc(OC4CC(F)(F)C4)c(F)c3)cc12 [Compound 12]", "endpoint-result": "> 70%"}
{"compound": "FC(F)(F)COc1ccc(-c2ccn3nncc3c2)cn1 [Compound 15]", "endpoint-result": "> 70%"}
